Test system: SK-MEL-5 melanoma
ASSAY SUMMARY: NCI-60 one-dose screen, 48 h (100 = growth as untreated, 0 = no growth, -100 = all killed)
PARTICULARS: 10 µM unless noted
Compounds without any hit were thinned out: in the full panel of roughly 83,000, 20% have a hit. The source made the active and inactive calls. How the source made its calls: active means growth percent below 10; inactive means the rest.
MEASURED PROPERTY: growth

# example entries with known answers
compound=CCN(CC)CCOc1ccc(C(=C(c2ccccc2)C2CCCC2)c2ccc(OCCN(CC)CC)cc2)cc1 reported="-82.4% (active)"
compound=C#C[C@]1(O)CC[C@H]2[C@@H]3CC=C4c5sc(N(C)c6ccccc6)nc5CC[C@]4(C)[C@H]3CC[C@@]21C reported="87.3% (inactive)"
compound=N#Cc1c(-c2cccs2)cc(-c2cnccn2)nc1SCC(=O)N/N=C/c1ccccc1 reported="4.1% (active)"
compound=CC(=O)OC[C@@]12Oc3c(cccc3-c3ccc(O)c4c3O[C@]3(COC(C)=O)C(=C4O)C(=O)C[C@H](C)[C@@H]3OC(C)=O)C(O)=C1C(=O)C[C@H](C)[C@@H]2OC(C)=O reported="-62.8% (active)"

Query string: // Input: "O=C(/C=C/c1ccc(Cl)c(Cl)c1)Nc1ncc(Cc2ccc(Cl)c(Cl)c2)s1" . Output its growth only.
Result string: 51.4% (inactive)

Query string: // Input: "Cc1ccsc1[C@H]1c2[nH]c3ccccc3c2C[C@H]2C(=O)N(CCCCCCC(=O)NO)CC(=O)N12" . Output its growth only.
Result string: 83.4% (inactive)

Query string: // Input: "Clc1ccc2[nH]cc(-c3nn4cc(-c5ccncc5)nc4s3)c2c1" . Output its growth only.
Result string: 38.3% (inactive)

Query string: // Input: "CC(=O)Nc1nc(C)c(-c2csc(Nc3ccccc3)n2)s1" . Output its growth only.
Result string: 9.06% (active)

Query string: // Input: "CC(=O)c1cc(C(=O)N2c3ccccc3Sc3ccccc32)n2c1ccc1ccccc12" . Output its growth only.
Result string: 44.1% (inactive)

Query string: // Input: CC(Nc1c(C#N)cnc2ccc(-c3cncc(O)c3)cc12)c1ccccc1 (centres undefined) . Output its growth only.
Result string: -89.4% (active)

Query string: // Input: CCCCN1C(=O)/C(=c2\sc3n(c2=O)C2C(NN=3)N(CC)C(=O)N2CC)c2cccc(C)c21 (centres undefined) . Output its growth only.
Result string: 29.6% (inactive)

Query string: // Input: "CCCCSC1=C(Cl)CN(c2ccccc2)C1=O" . Output its growth only.
Result string: 101% (inactive)
